Assay: Inhibition of DPAP1 assessed as blocking of release of beta-naphthylamine from Ala-Pro-Ala-betaNA substrate at 1 uM
Activity calls are given as the source filed them. The calls are words filed in the database; no cut-off is given here. Peptide text beside a SMILES is read from it. * marks the point of attachment. CH2F = FC*
A correct response names exactly one class from active, inactive

>>> classassignment("CC(C)C[C@H](NC(=O)[C@H]1O[C@@H]1C(=O)O)C(=O)NCCCCN=C(N)N")
"inactive"
>>> classassignment("CC(C)CC(=O)N[C@H](C(=O)N[C@H](C(=O)N[C@@H](CC(C)C)[C@@H](O)CC(=O)N[C@@H](C)C(=O)N[C@@H](CC(C)C)[C@@H](O)CC(=O)O)C(C)C)C(C)C")
"inactive"
>>> classassignment("CC(C)C[C@H](NC(=O)[C@@H](O)[C@H](N)Cc1ccccc1)C(=O)O")
"inactive"

Dear all, I need the recorded test outcome for N=C(N)NCCC[C@H](NC(=O)[C@@H]1CCCN1)C(=O)CF (H-Pro-Arg-CH2F) , thank you.
active
